- Test: yeast display, Sf9 membrane polyspecificity reagent, FACS + sequencing; frameworks hold sequencing errors
Property: polyreactivity (PSR sort gate)

# Entry sequence, polyreactivity (PSR sort gate)
rows = [
    ("QVQHVESGGGLVQAGGSLRLSCAASGRTFGQNAMGWYRQAPGKERELVASIRSGGITDYADSVKGRFTISRDNAKNTVYLHMNSLKPEDTAVYYCNAEGVWWSTRYDSWGQGTQVTVSA", "low polyreactivity"),
    ("QVQLVESGGGLVQAGGSLRLSCAASGRTFGGYDMGWYRQAPGKERELVAAISSGGRTYYADSVKGRFTISRDNAKNSVYLQMNSLKPEDTAVYYCAAKYRKWPIDYWGQGTQVTVSS", "high polyreactivity"),
    ("QVQLVESGGGLVQAGGSLRLSCAASGFIFYNAMGWYRQAPGKESELVAAITGSGGRTYYADSVKGRFTISRDNAKNTVYLQMNSLKPEDTAVYYCAADGYVRTVTSGWALRMGYWGQGTQVTVSS", "high polyreactivity"),
    ("QVQLVESGGGLVQAGGSLRLSCAASGSIFADYAMGWYRQAPGKERELVAAISYNGDSTYYADSVKGRFTISRDNAKTTVYLQMNSLKPEDTAVYNCAADGAYGGYDYWGQGTQVTVSS", "low polyreactivity"),
    ("QVQLVESGGGLVQAGGSLRLSCAASGRIFDYYAMGWYRQAPGKERELVAAISLIGASTYYADSVKGRFTISRDNAKNTVYLQMNSLKPEDTAVYYCAAEFYLRRFKVTKRYWFDYWGQGTQVTVSS", "low polyreactivity"),
    ("QVQLAESGGGLVQAGGSLRLSCAASGRIFARNAMGWYRQAPGKERELVAAISWSGGRTYYADSVKGRFTISRDNAKNTVYLQMNSLKPEDTAVYYCAADHYPWWAWEFDYWGQGTQVTVSS", "low polyreactivity"),
]

Consider the sequence QVQRVESGGGLVQAGGILRLSCAASGSTFKVNVIGWYRHAPRTERDLVSAINQSGGGKYYADSVKGRFTISRDNAKNTVYLQMNSLKPEDTAVYYCAAKIFVLRYVLSQEQRRYNYWGQGTQLTVSS and give its recorded polyreactivity (PSR sort gate).
low polyreactivity

Please indicate polyreactivity (PSR sort gate) recorded for QVQLVESGGGLVQAGGSLRLSCAASGITFRYYAMGWYRQAPGKERELVATITRGGSTYYADSVKGRFTISRDNAKNTVYLQMNSLKPEDTAVYYCAARQWYRYKVRFDYWGQGTQVTVSS
high polyreactivity

Answer with the recorded polyreactivity (PSR sort gate) for the sequence listed here: QVQLVESGGGLVQAGGSLRLSCAASGSTFWYYTMGWYRPAPGKERELVAGITSGGSTYYADSVKGRFTISRDYANNTVYLQMNSLKPEDTAVYYCTFYWYNYWGQGTQVTVSS
high polyreactivity

Give polyreactivity (PSR sort gate) for QVQLVESGGGLVQAGGSLRLSCAASGFTFRFNAMGWYRHAPGKERELVAGITSGGTTNYAYSVKGRFTISRDNAKNTVYLHMNSLKPEDTAVYYCNAAWYRWKQRYDYWGQGTLVTVSS
low polyreactivity

Give the value of polyreactivity (PSR sort gate) reported for the following: QVQLEESGGGLVQAGGSLRLSCAASGRTFGWNGMGWYRQAPGKERELVAVISSGGSTKYADSVKGRFTISRDNAKNTVYLQMNSLKPEDTALYYCAKDWVRSGRRNMDYWGQGTQVTFSS
low polyreactivity
